All values here come from patent US20250352659A1.

ASSAY_PROTOCOL: Conjugator-antibody conjugate maleimide hydrolysis (ring opening) kinetics by reduced LCMS
Format: physicochemical
CONDITION_SET: pH 7, time point 3 h
# reported MS DAR; entries follow
TEST_READOUT: MS DAR

> print(dat)
                                   compound  endpoint.result
1  CN(C)C(=O)CCOCC(N)CN1C(=O)C=CC1=O (centres unmarked)                8
2  CC(C)N(CCC(=O)N(C)C)C(=O)OCC(CN)N1C(=O)C=CC1=O (centres unmarked)             7.94
3  CN(C)C(=O)CCCCC(CN)N1C(=O)C=CC1=O (centres unmarked)                8
4  CN(C)C(=O)CCNC(=O)OCC(CCN)N1C(=O)C=CC1=O (centres unmarked)                8
5  CN(C)C(=O)CCNC(=O)OCCC(CN)N1C(=O)C=CC1=O (centres unmarked)                8
